quantity-measured: melting point

Sample answers from the record:
O=C(COC(=O)Cc1ccccc1Nc1cc2c(cc1Cl)CCC2)OCc1ccccc1 :: 97 to 100 °C
CN1CC=C(c2c[nH]c3ccc(NC(=O)c4ccccc4)cc23)CC1 :: > 250 °C
CCOC(=O)C1=C(N)NC2=C(C(=O)CCC2)C1C (centres undefined) :: 236 °C
c1ccc(CN2CC3Cc4ccccc4OC3C2)cc1 (centres undefined) :: 68 to 70 °C
CCC(=O)Oc1ccc(CC(=O)O)cc1C(C)(C)C :: 55.5 to 56.5 °C
COc1ccc(N2C(=O)C(OC)C2c2ccc(C(=O)O)cc2)cc1 (centres undefined) :: 233 °C
CCC12CCC3C4CCC(OC(C)=O)=CC4=CCC3C1CCC2OC(C)=O (centres undefined) :: 148 to 156 °C
CCCN1CCC23c4cccc(OC)c4OC2C2CCC3(C1=O)C(C(=O)OC)C2 (centres undefined) :: 126 to 128 °C

IN: Returns the measured melting point for the input molecule. Input: `CCc1ccc2[nH]c(SCC(F)(F)F)nc2c1`
OUT: 127 to 129 °C

IN: Entry `NS(=O)(=O)c1ccc(-c2cccn2-c2ccc(Cl)cc2Cl)cc1` : reported melting point = ?
OUT: 147 to 149 °C

IN: Could you tell me which melting point is on file for O=C1CC(C(=O)NC(Cc2ccc(C(F)(F)F)cc2)C(O)c2ccc(F)cc2)c2ccccc21 (racemic) ?
OUT: 237 to 238 °C

IN: Reported melting point, molecule COc1cc(CN2CCN(C)CC2C2=NCCN2)cc(OC)c1OC (centres undefined) : ____
OUT: 185 to 187 °C

IN: Would you kindly share the measured melting point for `CC(C)(C)OC(=O)NCCN(CCC12CC3CC(CC(C3)C1)C2)C(=O)NCCCc1ccncc1` ?
OUT: 158 to 160 °C

IN: Need melting point of `CSCC(=O)[C@H](Cc1ccccc1)NC(=O)[C@H](CC(C)C)NC(C)=O` , thanks.
OUT: 118 to 120 °C
